- Tested on: Escherichia coli TOP10
- procedureText: shrunken log2 fold change of peptide-encoding DNA abundance (4.5 h post-induction vs induction); higher = less antimicrobial activity (less host growth inhibition)
- settings: time post-induction: 4.5 h; library: site-saturation at positions 5, 18, 19, 20
Where shrunken log2 fold change equals or exceeds 0.2, the correct label is satisfied; where it does not, the label is not satisfied.

- monomerSequence: "RRIRMRPPRLPRPRPRPYWLPRP"
  tgt: "Escherichia coli TOP10"
  labelClass: "not satisfied"
- monomerSequence: "RRIRKRPPRLPRPRPRPAKNPRP"
  tgt: "Escherichia coli TOP10"
  labelClass: "satisfied"
- monomerSequence: "RRIRGRPPRLPRPRPRPRIMPRP"
  tgt: "Escherichia coli TOP10"
  labelClass: "satisfied"
- monomerSequence: "RRIRHRPPRLPRPRPRPTKLPRP"
  tgt: "Escherichia coli TOP10"
  labelClass: "not satisfied"
- monomerSequence: "RRIRMRPPRLPRPRPRPSRLPRP"
  tgt: "Escherichia coli TOP10"
  labelClass: "not satisfied"
- monomerSequence: "RRIRNRPPRLPRPRPRPHLLPRP"
  tgt: "Escherichia coli TOP10"
  labelClass: "not satisfied"
- monomerSequence: "RRIRARPPRLPRPRPRPKIAPRP"
  tgt: "Escherichia coli TOP10"
  labelClass: "not satisfied"

----------
- Test system: Escherichia coli TOP10
- procedureText: shrunken log2 fold change of peptide-encoding DNA abundance (4.5 h post-induction vs induction); higher = less antimicrobial activity (less host growth inhibition)
- settings: time post-induction: 4.5 h; library: site-saturation at positions 5, 18, 19, 20
The entries below are paired with their reported shrunken log2 fold change.

- monomerSequence: "RRIRFRPPRLPRPRPRPRMVPRP"
  shrunken log2 fold change: -0.157
- monomerSequence: "RRIRNRPPRLPRPRPRPCAYPRP"
  shrunken log2 fold change: -0.139
- monomerSequence: "RRIRERPPRLPRPRPRPGKAPRP"
  shrunken log2 fold change: -0.0498
- monomerSequence: "RRIRERPPRLPRPRPRPELGPRP"
  shrunken log2 fold change: 0.0169
- monomerSequence: "RRIRIRPPRLPRPRPRPDIVPRP"
  shrunken log2 fold change: -0.906
- monomerSequence: "RRIRGRPPRLPRPRPRPKSVPRP"
  shrunken log2 fold change: 0.591
- monomerSequence: "RRIRTRPPRLPRPRPRPAIDPRP"
  shrunken log2 fold change: -0.206
- monomerSequence: "RRIRRRPPRLPRPRPRPGWCPRP"
  shrunken log2 fold change: 0.422

----------
- System: Escherichia coli TOP10;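 further: peptides expressed intracellularly from a pBAD plasmid library in pooled LB shake-flask culture, induced with 0.3% L-arabinose, DNA abundance read by NGS, three biological replicates, DESeq2 with apeglm shrinkage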
- procedureText: shrunken log2 fold change of peptide-encoding DNA abundance (4.5 h post-induction vs induction); higher = less antimicrobial activity (less host growth inhibition)
- settings: time post-induction: 4.5 h; library: site-saturation at positions 5, 18, 19, 20
The entries below are paired with their reported shrunken log2 fold change.
readoutType: shrunken log2 fold change

- monomerSequence: "RRIRQRPPRLPRPRPRPHLHPRP"
  reportedValue: -0.177
- monomerSequence: "RRIRNRPPRLPRPRPRPIWHPRP"
  reportedValue: -0.356
- monomerSequence: "RRIRPRPPRLPRPRPRPKGGPRP"
  reportedValue: 1.33
- monomerSequence: "RRIRPRPPRLPRPRPRPITHPRP"
  reportedValue: -0.117
- monomerSequence: "RRIRARPPRLPRPRPRPYCAPRP"
  reportedValue: -0.277
- monomerSequence: "RRIRVRPPRLPRPRPRPWIPPRP"
  reportedValue: -0.513
- monomerSequence: "RRIRGRPPRLPRPRPRPDEEPRP"
  reportedValue: 1.76
- monomerSequence: "RRIRYRPPRLPRPRPRPTPRPRP"
  reportedValue: 0.886
- monomerSequence: "RRIRRRPPRLPRPRPRPSQVPRP"
  reportedValue: 0.0533
- monomerSequence: "RRIRTRPPRLPRPRPRPTCFPRP"
  reportedValue: -0.35
- monomerSequence: "RRIRWRPPRLPRPRPRPVGNPRP"
  reportedValue: 0.0858
- monomerSequence: "RRIRKRPPRLPRPRPRPIEFPRP"
  reportedValue: 0.0427
- monomerSequence: "RRIRARPPRLPRPRPRPMHCPRP"
  reportedValue: 0.0899
- monomerSequence: "RRIRSRPPRLPRPRPRPVYVPRP"
  reportedValue: -0.525
- monomerSequence: "RRIRFRPPRLPRPRPRPNINPRP"
  reportedValue: -0.536
- monomerSequence: "RRIRCRPPRLPRPRPRPFLIPRP"
  reportedValue: -0.36
- monomerSequence: "RRIRQRPPRLPRPRPRPKWNPRP"
  reportedValue: -0.216
- monomerSequence: "RRIRYRPPRLPRPRPRPGQSPRP"
  reportedValue: -0.108
- monomerSequence: "RRIRARPPRLPRPRPRPVDRPRP"
  reportedValue: 0.193
- monomerSequence: "RRIRCRPPRLPRPRPRPMNCPRP"
  reportedValue: -0.0537
- monomerSequence: "RRIRNRPPRLPRPRPRPHHYPRP"
  reportedValue: -0.619
- monomerSequence: "RRIRDRPPRLPRPRPRPSHCPRP"
  reportedValue: -0.29
- monomerSequence: "RRIRKRPPRLPRPRPRPMRNPRP"
  reportedValue: 1.32
- monomerSequence: "RRIRQRPPRLPRPRPRPPHFPRP"
  reportedValue: 0.00908
- monomerSequence: "RRIRPRPPRLPRPRPRPKEVPRP"
  reportedValue: -0.0501
- monomerSequence: "RRIRCRPPRLPRPRPRPQTNPRP"
  reportedValue: -0.374
- monomerSequence: "RRIRIRPPRLPRPRPRPKQPPRP"
  reportedValue: 0.102
- monomerSequence: "RRIRWRPPRLPRPRPRPPCRPRP"
  reportedValue: -0.0876
- monomerSequence: "RRIRARPPRLPRPRPRPQSVPRP"
  reportedValue: -0.037
- monomerSequence: "RRIRMRPPRLPRPRPRPGTQPRP"
  reportedValue: 0.407
- monomerSequence: "RRIRHRPPRLPRPRPRPETIPRP"
  reportedValue: -0.0239
- monomerSequence: "RRIRVRPPRLPRPRPRPEKKPRP"
  reportedValue: -0.0337
- monomerSequence: "RRIRNRPPRLPRPRPRPRHVPRP"
  reportedValue: -0.119
- monomerSequence: "RRIRLRPPRLPRPRPRPPYYPRP"
  reportedValue: -0.292
- monomerSequence: "RRIRYRPPRLPRPRPRPEYQPRP"
  reportedValue: -0.00141
- monomerSequence: "RRIRKRPPRLPRPRPRPDHNPRP"
  reportedValue: -0.276
- monomerSequence: "RRIRERPPRLPRPRPRPIGDPRP"
  reportedValue: -0.942
- monomerSequence: "RRIRARPPRLPRPRPRPKHIPRP"
  reportedValue: -0.219
- monomerSequence: "RRIRERPPRLPRPRPRPPRIPRP"
  reportedValue: -0.453
- monomerSequence: "RRIRGRPPRLPRPRPRPGRLPRP"
  reportedValue: 0.706
- monomerSequence: "RRIRRRPPRLPRPRPRPDLHPRP"
  reportedValue: 0.308
- monomerSequence: "RRIRERPPRLPRPRPRPPAWPRP"
  reportedValue: 0.0898
- monomerSequence: "RRIRDRPPRLPRPRPRPHIAPRP"
  reportedValue: 0.0931
- monomerSequence: "RRIRYRPPRLPRPRPRPFLLPRP"
  reportedValue: -1.19
- monomerSequence: "RRIRTRPPRLPRPRPRPGYDPRP"
  reportedValue: -0.697
- monomerSequence: "RRIRFRPPRLPRPRPRPNRDPRP"
  reportedValue: -0.0824
- monomerSequence: "RRIRDRPPRLPRPRPRPPAQPRP"
  reportedValue: 0.296
- monomerSequence: "RRIRVRPPRLPRPRPRPLEMPRP"
  reportedValue: -0.308
- monomerSequence: "RRIRMRPPRLPRPRPRPKPIPRP"
  reportedValue: 0.32
- monomerSequence: "RRIRMRPPRLPRPRPRPSQKPRP"
  reportedValue: 0.246
- monomerSequence: "RRIRWRPPRLPRPRPRPYRMPRP"
  reportedValue: 0.0292
- monomerSequence: "RRIRWRPPRLPRPRPRPMIFPRP"
  reportedValue: -0.302
- monomerSequence: "RRIRNRPPRLPRPRPRPTFQPRP"
  reportedValue: 0.0675
- monomerSequence: "RRIRIRPPRLPRPRPRPFKDPRP"
  reportedValue: -0.0121
- monomerSequence: "RRIRMRPPRLPRPRPRPKNYPRP"
  reportedValue: 0.0737
- monomerSequence: "RRIRNRPPRLPRPRPRPDFTPRP"
  reportedValue: 0.0959
- monomerSequence: "RRIRWRPPRLPRPRPRPLVQPRP"
  reportedValue: 0.23
- monomerSequence: "RRIRKRPPRLPRPRPRPRSGPRP"
  reportedValue: 0.183
- monomerSequence: "RRIRQRPPRLPRPRPRPDLVPRP"
  reportedValue: -0.0031
- monomerSequence: "RRIRERPPRLPRPRPRPGPEPRP"
  reportedValue: 0.129
- monomerSequence: "RRIRERPPRLPRPRPRPWHIPRP"
  reportedValue: -0.169
- monomerSequence: "RRIRCRPPRLPRPRPRPSRVPRP"
  reportedValue: 0.247
- monomerSequence: "RRIRGRPPRLPRPRPRPIMQPRP"
  reportedValue: 0.105
